Every entry's value here was drawn from ChEMBL document CHEMBL3297735.

# Tested on: PC-3
# Test Description: Cytotoxicity against human PC3 cells assessed as cell viability at 10 uM after 72 hrs by MTS assay in presence of 10% fetal calf serum relative to control
# Assay type: functional
# Run Parameters: PC-3, 72 h, read-out: Activity
Assay Endpoint: viability at 10 µM (%)
The reply should be a number in %, with the unit left off.

// solved cases for viability at 10 µM follow
* Cc1c(C)c2c(c(C)c1CCCCCCNC(=O)OC(C)(C)C)CCC(C)(COc1ccc(/C=C3\SC(=O)NC3=O)cc1)O2 (racemic) | 73.7
* Cc1c(C)c2c(c(C)c1O)CCC(C)(COc1ccc(CC3SC(=O)NC3=O)cc1)O2 (stereo unspecified) [TROGLITAZONE] | 86.2
* O=C1S/C(=C\c2ccc(O)cc2)C(=O)N1Cc1ccccc1 | 65.8
* CC1(CN2C(=O)S/C(=C\c3cc(Br)c(O)c(Br)c3)C2=O)CCCCC1 | 52.9
* Cc1c(C)c2c(c(C)c1O)CCC(C)(CN1C(=O)S/C(=C\c3ccc(O)cc3)C1=O)O2 (racemic) | 36.3
* Cc1c(C)c2c(c(C)c1O)CCC(C)(/C=C1\SC(=O)N(Cc3ccccc3)C1=O)O2 (racemic) | 83.4
* Cc1c(C)c2c(c(C)c1O)CCC(C)(COc1ccc(/C=C3\SC(=O)N(C)C3=O)cc1)O2 (racemic) | 85.5
* Cc1c(C)c2c(c(C)c1CCCCCCN)CCC(C)(COc1ccc(/C=C3\SC(=O)NC3=O)cc1)O2.O=C(O)C(F)(F)F (racemic) | 60.1
* COc1ccc(/C=C2\SC(=O)N(Cc3ccccc3)C2=O)cc1 | 91.4
* O=C(O)c1ccccc1-c1ccc(CN2C(=O)S/C(=C\c3ccc(O)cc3)C2=O)cc1 | 95.6

Input line: For O=C1S/C(=C\c2ccc([N+](=O)[O-])cc2)C(=O)N1Cc1ccccc1 , write its viability at 10 µM.
Output line: 72.3

Input line: For O=C1S/C(=C\c2ccc(O)cc2)C(=O)N1C/C=C/c1ccccc1 , write its viability at 10 µM.
Output line: 57.1

Input line: For O=C1S/C(=C\c2ccc(Cl)cc2)C(=O)N1Cc1ccccc1 , write its viability at 10 µM.
Output line: 95.5

Input line: For Cc1c(C)c2c(c(C)c1CCCCCCN)CCC(C)(COc1ccc(/C=C3\SC(=O)N(C)C3=O)cc1)O2.O=C(O)C(F)(F)F (racemic) , write its viability at 10 µM.
Output line: 7.7

Input line: For Cc1c(C)c2c(c(C)c1OC(=O)CCCCCCCNC(=O)OC(C)(C)C)CCC(C)(COc1ccc(/C=C3\SC(=O)NC3=O)cc1)O2 (stereo unspecified) , write its viability at 10 µM.
Output line: 62

Input line: For Cc1c(C)c2c(c(C)c1OC(=O)CCCCCCCN)CCC(C)(COc1ccc(/C=C3\SC(=O)N(C)C3=O)cc1)O2 (racemic) , write its viability at 10 µM.
Output line: 2.4

====

# Test Description: Cytotoxicity against human hepatocytes assessed as cell viability at 100 uM after 90 mins by MTT assay relative to control
# Format: cell-based, Hepatocyte
# Run Parameters: read-out: Activity
Assay Endpoint: viability at 1.5 h, 100 µM (%)
The reply should be a number in %, with the unit left off.

// solved cases for viability at 1.5 h, 100 µM follow
* O=C1S/C(=C\c2ccc(O)cc2)C(=O)N1Cc1ccccc1 | 40.8
* Cc1c(C)c2c(c(C)c1O)CCC(C)(COc1ccc(/C=C3\SC(=O)N(C)C3=O)cc1)O2 (racemic) | 147
* Cc1c(C)c2c(c(C)c1O)CCC(C)(COc1ccc(/C=C3\SC(=O)NC3=O)cc1)O2 (centres undefined) | 62.8

Kindly consider the entry below.
Input line: For Cc1c(C)c2c(c(C)c1OC(=O)OC(C)(C)C)CCC(C)(CN1C(=O)S/C(=C\c3ccc(O)cc3)C1=O)O2 (racemic) , write its viability at 1.5 h, 100 µM.
Output line: 65.1
